Test system: NiV-pVSV
Measurement Protocol: microbe, parasite or virus in culture
Type: cell-based, Nipah virus envelope pseudotyped onto VSV
Rule: measured IC50 below 1000 nM gets satisfied; anything equal to or greater than 1000 nM gets not satisfied.

>>> class_assignment("CCN1C(=O)/C(=C/c2ccc(-c3ccccc3N)o2)SC1=S")
"not satisfied"
>>> class_assignment("CCN1C(=O)/C(=C/c2ccc(-c3ccccc3OC)o2)SC1=S")
"satisfied"
>>> class_assignment("CCN1C(=O)/C(=C/c2ccc(-c3cccc(F)c3)o2)SC1=S")
"not satisfied"

Consider CCCN1C(=O)/C(=C/c2ccc(-c3ccccc3)o2)SC1=S . Does its IC50 lie strictly below 1000 nM? satisfied

Strictly below 1000 nM in IC50? CCN1C(=O)/C(=C/c2ccc(-c3ccccc3O)o2)SC1=S not satisfied

---

Test system: NiV-pVSV
Measurement Protocol: microbe, parasite or virus in culture
Type: cell-based, Nipah virus envelope pseudotyped onto VSV
Value Kind: pIC50
// pIC50: -log10(molar conc.)

For orientation, consider the following solved cases.
>>> observed("CCN1C(=O)/C(=C/c2ccc(-c3cccc(OC)c3)o2)SC1=S [LJ-011]")
5.94
>>> observed("CN1C(=O)/C(=C/c2ccc(-c3ccccc3)o2)SC1=S [LJ-005]")
5.91

Supply recorded pIC50 for CCN1C(=O)/C(=C/c2ccc(-c3ccccc3[N+](=O)[O-])o2)SC1=S [LJ-015] here. 5.99

Let me know recorded pIC50 for CCN1C(=O)/C(=C/c2ccc(-c3ccccc3)s2)SC1=S [LJ-018] , thanks. 5.58

Entry CCN1C(=O)/C(=C/c2cnc(-c3ccccc3)o2)SC1=S [LJ-023] needs its pIC50 filled in; supply it. 5.62

---

pIC50 by entry:
Test system: NiV-pVSV
Measurement Protocol: microbe, parasite or virus in culture
Assay type: cell-based, Nipah virus envelope pseudotyped onto VSV
Stated Conditions: read-out: IC50
pIC50 field: float, defined as -log10 of concentration (mol/L).

Examples with their reported pIC50 follow.
>>> observed("C=CCN1C(=S)S/C(=C\\c2ccc(-c3ccccc3)o2)C1=S")
6.05
>>> observed("CCN1C(=S)S/C(=C\\c2ccc(-c3ccccc3[N+](=O)[O-])o2)C1=S")
5.70

From here, focus on the item given below.
Provide one value: measured pIC50 of CC(C)(C)OC(=O)NCCCN1C(=O)/C(=C/c2ccc(-c3ccccc3)o2)SC1=S 6.13

---

System: Ebola
Measurement Protocol: microbe, parasite or virus in culture
Format: cell-based
Stated Conditions: Zaire ebolavirus, read-out: Activity
pIC50: −log10 of the molar value.
Value Kind: pIC50

Quote pIC50 reported for C=CCN1C(=O)/C(=C/c2ccc(-c3ccccc3)o2)SC1=S please. 6.00 to 6.30

---

System: NiV-pVSV
Measurement Protocol: microbe, parasite or virus in culture
Assay type: cell-based, Nipah virus envelope pseudotyped onto VSV
Stated Conditions: Vesicular stomatitis virus, Vero
Collected pIC50 values appear next to each entry.
// returns pIC50 (minus log10 of molar concentration), number only

>>> observed("CCN1C(=O)/C(=C/c2ccc(-c3ccccc3[N+](=O)[O-])o2)SC1=S")
5.89
>>> observed("CCN1C(=O)S/C(=C\\c2ccc(-c3ccccc3[N+](=O)[O-])o2)C1=S")
6.31
>>> observed("CCN1C(=O)/C(=C/c2cnc(-c3ccccc3)o2)SC1=S")
5.60
>>> observed("CCN1C(=O)/C(=C/c2ccc(-c3ccccc3)s2)SC1=S")
5.39

// Input: CN1C(=O)/C(=C/c2ccc(-c3ccccc3)o2)SC1=S . Output its pIC50 only. 5.82

Output pIC50 of O=C1NC(=S)S/C1=C\c1ccc(-c2ccccc2)o1 5.98

Name the recorded pIC50 of the item CCN1C(=O)/C(=C/c2ccc(-c3ccccc3OC)o2)SC1=S in your answer. 6.10

Supply pIC50 value. Item: CCCN1C(=O)/C(=C/c2ccc(-c3ccccc3)o2)SC1=S 6.05

Dear colleague, please send me the reported pIC50 for CCN1C(=O)/C(=C/c2ccc(-c3cccc(F)c3)o2)SC1=S when you can. 5.60

Determine its reported pIC50: CCN1C(=O)/C(=C/c2ccc(-c3ccccc3N)o2)SC1=S 5.47

Determine its reported pIC50: C#CCN1C(=O)/C(=C/c2ccc(-c3ccccc3)o2)SC1=S 5.99
